test: Metabolic stability in human liver microsomes assessed as compound remaining after 1 hr; format: ADME; settings: read-out: Stability
Would you kindly list remaining at 1 h for each of these molecules?

Recorded results for 6 molecules are shown here.
>>> print(df.to_string())
                                   molecule      measure_name  recorded_value
0  O=[N+]([O-])c1cn2c(n1)OC[C@H](COc1ccc(OC(F)(F)F)cc1)C2  remaining at 1 h             90%
1  O=[N+]([O-])c1cn2c(n1)OC[C@@H](OCc1ccc(-c3ccc(C(F)(F)F)nc3)cc1F)C2  remaining at 1 h             96%
2  O=[N+]([O-])c1cn2c(n1)OC[C@@H](COc1ccc(OC(F)(F)F)cc1)C2  remaining at 1 h             91%
3  O=[N+]([O-])c1cn2c(n1)OC[C@@H](OCc1c(F)cc(-c3ccc(OC(F)(F)F)cc3)cc1F)C2  remaining at 1 h             95%
4  O=[N+]([O-])c1cn2c(n1)OCC(COc1ccc(-c3ccc(OC(F)(F)F)cc3)cc1)C2 (configuration not stated)  remaining at 1 h            100%
5  O=[N+]([O-])c1cn2c(n1)OC[C@@H](OCc1ccc(-c3ccc(OC(F)(F)F)cc3)cc1Cl)C2  remaining at 1 h             99%

Shift focus to the following entry.
Ask: Bench note: what remaining at 1 h did "N#Cc1cc(-c2ccc(OC(F)(F)F)cc2)ccc1CO[C@@H]1COc2nc([N+](=O)[O-])cn2C1" show?
Result: 91%
